- study target: Arginase-2, mitochondrial (Homo sapiens)
- Sequence (whole entry): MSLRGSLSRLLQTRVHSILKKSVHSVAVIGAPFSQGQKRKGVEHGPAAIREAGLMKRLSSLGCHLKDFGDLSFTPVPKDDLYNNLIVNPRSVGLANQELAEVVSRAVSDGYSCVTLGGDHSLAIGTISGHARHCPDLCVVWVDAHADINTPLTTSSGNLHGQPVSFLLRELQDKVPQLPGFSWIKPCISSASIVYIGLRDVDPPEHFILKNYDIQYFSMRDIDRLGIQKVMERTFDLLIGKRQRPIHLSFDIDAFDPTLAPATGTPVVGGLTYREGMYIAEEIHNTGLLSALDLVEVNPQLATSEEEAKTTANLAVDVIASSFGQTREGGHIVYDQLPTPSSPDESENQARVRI
- assay details: in vitro enzyme assay to detect the production of urea directly proportional to the activity of Arginase II
- Type: functional
- Design: scale not given: in the data most compounds retested in dose-response had high values
- test context: 33.3 µM
Quick reference for Percent Effect among some compounds
# unit: % | format: bare number

Use these answered entries as a reference point.
Cc1ccc(NC2CCN(C(=O)CCc3ccco3)CC2)nn1 = 0.554
Cc1cccc(C(=O)N(C)Cc2cc(Br)cs2)n1 = 0
c1ccc2oc(NC3CCCN(Cc4noc(C5CC5)n4)C3)nc2c1 (stereo unspecified) = 3.81
CC(NC(=O)CNCCn1cccn1)c1ccc2c(c1)OCCO2 (stereo unspecified) = 1.07
OCCOc1nc(-c2ccccc2Cl)no1 = 18.6

Please list Percent Effect recorded for the compound CCn1ccnc1CN1CCN(C(C)C(=O)NC2CCCCC2)CC1 (stereo unspecified) 0.766

Give Percent Effect for Cc1cc(C(C)NC(=O)N2CCC(n3cncn3)CC2)c(C)s1 (stereo unspecified) -2.28

Give the value of Percent Effect reported for the following: CC(Cn1cccn1)NC(=O)Nc1nccs1 (stereo unspecified) 0.712

Note down Percent Effect recorded for `COCc1nc2cc(NCc3ccc(C)o3)ccc2o1` 37.1

Give the value of Percent Effect reported for the following: `O=c1[nH]c(CN(Cc2ccco2)C2CCCC2)nc2ccccc12` 0.712

Provide only the value of recorded Percent Effect for CC(Cn1ccnc1)NC(=O)NCCc1ccccn1 (stereo unspecified) -2.3

Return value of Percent Effect for input Cc1cccc(-c2nc(CN3CCCCC3Cn3cncn3)no2)c1 (stereo unspecified) , no commentary. 3.45

Note Percent Effect for the compound shown: `CC(=O)c1cc(CC(=O)NCc2ccc(F)cc2)cs1` -1.43

Return the recorded Percent Effect value; entry: CC(C)S(=O)(=O)N1CCC(c2cc3n(n2)[C@@H](C(F)(F)F)C[C@@H](C)N3)C1 (stereo partly specified) -1.63

Give the value of Percent Effect reported for the following: CCCC1CCCN(Cc2csc(-c3cnn(C)c3)n2)CC1 (stereo unspecified) -5.75

Tell us which Percent Effect value is on record for `CCOc1ncccc1C(=O)NCCN(CC)C1CC1` 5.38

Read off the recorded Percent Effect for `CCOC(=O)c1sc2ccsc2c1CNC(=O)C(C)(C)C#N` -5.73

Supply Percent Effect value. Item: c1csc(-c2nc(CN3CCCC3Cn3cncn3)co2)c1 (stereo unspecified) -3.18

Dear colleague, please send me the reported Percent Effect for CCn1nc(C)c(CNC(=O)c2cn(CC3CCCO3)nn2)c1C (stereo unspecified) when you can. 2.08

Assign Percent Effect to the following record: CCc1nc(CN(C)CC2CCN(CC(C)O)CC2)no1 (stereo unspecified) -2.86
